Measured EC50 by item
target_entity: F508delCFTR (Homo sapiens, UniProt P13569, DEL508-508)
Construct: expressed in transfected cells; host or cells: CFBE41o- human lung-derived epithelial cells (CFBE41o-F508delCFTR-HRP), doxycycline-inducible
Sequence (P13569 with tags, fused parts or gaps DEL508-508): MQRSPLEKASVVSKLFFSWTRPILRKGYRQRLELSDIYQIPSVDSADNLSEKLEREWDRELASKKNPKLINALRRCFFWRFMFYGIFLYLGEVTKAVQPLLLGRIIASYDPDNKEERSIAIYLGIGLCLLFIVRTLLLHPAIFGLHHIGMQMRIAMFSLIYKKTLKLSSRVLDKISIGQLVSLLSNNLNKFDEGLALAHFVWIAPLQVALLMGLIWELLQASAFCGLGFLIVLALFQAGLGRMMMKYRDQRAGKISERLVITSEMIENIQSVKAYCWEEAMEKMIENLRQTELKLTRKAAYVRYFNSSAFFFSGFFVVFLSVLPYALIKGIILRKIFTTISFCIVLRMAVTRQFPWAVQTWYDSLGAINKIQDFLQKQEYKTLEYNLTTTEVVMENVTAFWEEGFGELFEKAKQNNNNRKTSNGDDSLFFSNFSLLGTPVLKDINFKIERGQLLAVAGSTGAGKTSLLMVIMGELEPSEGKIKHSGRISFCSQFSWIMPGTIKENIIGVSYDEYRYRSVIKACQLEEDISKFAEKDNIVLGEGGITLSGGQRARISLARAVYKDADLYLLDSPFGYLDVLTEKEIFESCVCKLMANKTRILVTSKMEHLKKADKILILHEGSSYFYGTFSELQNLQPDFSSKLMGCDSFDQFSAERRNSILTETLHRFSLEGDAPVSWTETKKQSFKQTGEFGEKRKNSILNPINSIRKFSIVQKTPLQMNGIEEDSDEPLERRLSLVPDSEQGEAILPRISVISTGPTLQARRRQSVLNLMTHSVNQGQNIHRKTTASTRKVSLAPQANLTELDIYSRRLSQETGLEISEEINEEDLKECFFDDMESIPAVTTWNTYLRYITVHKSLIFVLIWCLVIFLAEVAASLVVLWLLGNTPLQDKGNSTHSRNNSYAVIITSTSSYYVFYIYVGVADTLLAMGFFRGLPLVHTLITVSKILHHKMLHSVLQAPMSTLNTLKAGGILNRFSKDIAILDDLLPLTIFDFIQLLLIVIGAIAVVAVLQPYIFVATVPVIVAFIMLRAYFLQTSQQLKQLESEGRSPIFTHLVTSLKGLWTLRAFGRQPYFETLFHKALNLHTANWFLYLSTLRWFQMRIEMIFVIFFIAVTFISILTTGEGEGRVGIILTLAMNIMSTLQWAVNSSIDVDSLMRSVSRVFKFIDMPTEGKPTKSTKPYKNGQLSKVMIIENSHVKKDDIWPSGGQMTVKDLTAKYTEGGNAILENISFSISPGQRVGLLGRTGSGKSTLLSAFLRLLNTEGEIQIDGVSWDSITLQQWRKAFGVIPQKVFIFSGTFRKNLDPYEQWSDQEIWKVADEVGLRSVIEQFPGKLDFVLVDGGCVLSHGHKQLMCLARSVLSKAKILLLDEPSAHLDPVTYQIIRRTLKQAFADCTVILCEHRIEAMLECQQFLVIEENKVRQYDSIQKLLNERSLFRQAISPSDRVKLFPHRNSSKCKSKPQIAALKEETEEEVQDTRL
measurement_notes: Cell Surface Expression-Horse Radish Peroxidase (CSE-HRP) assay, test compound without co-corrector
Type: cell-based
condition_set: test compound without co-corrector

Example results:
- molecule: "O=C(NS(=O)(=O)c1cccc2ccccc12)C1CCc2ccccc21 (centres unmarked)"
  EC50: "3 to 10 µM"
- molecule: "COc1ccc(Br)c2c1C(C(=O)NS(=O)(=O)c1ccc(F)c3ncccc13)CC2 (centres unmarked)"
  EC50: "3 to 10 µM"
- molecule: "COc1cccc2c1CCC2C(=O)NS(=O)(=O)c1ccccc1C(F)(F)F (centres unmarked)"
  EC50: "3 to 10 µM"
- molecule: "CCC1(C(=O)NS(=O)(=O)c2ccccc2OCCOC)CCc2c(Cl)cccc21 (centres unmarked)"
  EC50: "< 3 µM"
- molecule: "COc1ccc(Br)c2c1C(C(=O)NS(=O)(=O)c1cccc3c(O)cccc13)CC2 (centres unmarked)"
  EC50: "3 to 10 µM"
- molecule: "COc1ccc(C(C)(C)O)c2c1C(C(=O)NS(=O)(=O)c1cccc3ccccc13)CC2 (centres unmarked)"
  EC50: "3 to 10 µM"
- molecule: "COc1ccc(Cl)c2c1CC[C@H]2C(=O)NS(=O)(=O)c1cccc2ccccc12 (single isomer, unassigned)"
  EC50: "3 to 10 µM"
- molecule: "COc1ncc(Br)c2c1C(C(=O)NS(=O)(=O)c1cccc3ccccc13)CC2 (centres unmarked)"
  EC50: "3 to 10 µM"
- molecule: "COc1ccc(C2CCC2)c2c1C(C(=O)NS(=O)(=O)c1cccc3ccccc13)C2 (centres unmarked)"
  EC50: "< 3 µM"
- molecule: "COc1cccc2c1CCC2C(=O)NS(=O)(=O)c1cccnc1 (centres unmarked)"
  EC50: "≥ 10 µM"

The value of EC50 recorded for Cc1ccccc1S(=O)(=O)NC(=O)C1CCc2c(OC(C)C)cccc21 (centres unmarked) when tested on F508delCFTR (Homo sapiens, UniProt P13569, DEL508-508) reads 3 to 10 µM

The value of EC50 recorded for COc1cccc2c1CCC2C(=O)NS(=O)(=O)c1nc2c(c(=O)n(C)c(=O)n2C)n1Cc1ccc(Cl)cc1 (centres unmarked) when tested on F508delCFTR (Homo sapiens, UniProt P13569, DEL508-508) reads ≥ 10 µM

The value of EC50 recorded for COc1cccc2c1CCC2C(=O)NS(=O)(=O)c1c(C(=O)OC(C)(C)C)c(C)nn1C (centres unmarked) when tested on F508delCFTR (Homo sapiens, UniProt P13569, DEL508-508) reads ≥ 10 µM

The value of EC50 recorded for COc1ccc(-c2cccc3c2OC(F)(F)O3)c2c1CCCC2C(=O)NS(=O)(=O)c1cccc2ccccc12 (centres unmarked) when tested on F508delCFTR (Homo sapiens, UniProt P13569, DEL508-508) reads < 3 µM

The value of EC50 recorded for COc1ccc(C2CCC2)c2c1C(C(=O)NS(=O)(=O)c1cccc3cnn(C)c13)CC2 (centres unmarked) when tested on F508delCFTR (Homo sapiens, UniProt P13569, DEL508-508) reads 3 to 10 µM

The value of EC50 recorded for CCC1(C(=O)NS(=O)(=O)c2cccc3nsnc23)CCc2c(Cl)cccc21 (centres unmarked) when tested on F508delCFTR (Homo sapiens, UniProt P13569, DEL508-508) reads ≥ 10 µM

The value of EC50 recorded for COc1ccc(Br)c2c1C(C(=O)NS(=O)(=O)c1cccc3nc(C)cn13)CC2 (centres unmarked) when tested on F508delCFTR (Homo sapiens, UniProt P13569, DEL508-508) reads < 3 µM

The value of EC50 recorded for COc1cccc2c1CCC2C(=O)NS(=O)(=O)c1ccccc1Br (centres unmarked) when tested on F508delCFTR (Homo sapiens, UniProt P13569, DEL508-508) reads 3 to 10 µM

The value of EC50 recorded for COc1cccc2c1CCC2C(=O)NS(=O)(=O)c1ccc(O)c([N+](=O)[O-])c1 (centres unmarked) when tested on F508delCFTR (Homo sapiens, UniProt P13569, DEL508-508) reads ≥ 10 µM

The value of EC50 recorded for CCC1(C(=O)NS(=O)(=O)c2ccccc2F)CCc2c(Cl)cccc21 (centres unmarked) when tested on F508delCFTR (Homo sapiens, UniProt P13569, DEL508-508) reads < 3 µM

The value of EC50 recorded for COc1cc2c(cc1OC)C(C(=O)NS(=O)(=O)c1ccccc1C)CCC2 (centres unmarked) when tested on F508delCFTR (Homo sapiens, UniProt P13569, DEL508-508) reads ≥ 10 µM

====

Measured pEC50 by item
target_entity: F508delCFTR (Homo sapiens, UniProt P13569, DEL508-508)
Construct: expressed in transfected cells; host or cells: CFBE41o- human lung-derived epithelial cells (CFBE41o-F508delCFTR-HRP), doxycycline-inducible
measurement_notes: Cell Surface Expression-Horse Radish Peroxidase (CSE-HRP) assay, test compound with co-corrector
Type: cell-based
condition_set: with 2 μM co-corrector
pEC50: −log10 of the molar value.

Example results:
- molecule: "COc1cccc2c1C(C(=O)NS(=O)(=O)c1cccc3ccccc13)CC2(C)C (stereo not drawn)"
  pEC50: "> 5.52"
- molecule: "CCC1(C(=O)NS(=O)(=O)c2cccc3nccnc23)CCc2c(Cl)cccc21 (stereo not drawn)"
  pEC50: "> 5.52"
- molecule: "COc1cccc2c1C(C(=O)NS(=O)(=O)c1cccc3ncccc13)CC2(C)C (stereo not drawn)"
  pEC50: "> 5.52"
- molecule: "COc1cccc2c1CCC2C(=O)NS(=O)(=O)c1sc(C)nc1C (stereo not drawn)"
  pEC50: "≤ 5.00"
- molecule: "COc1cccc2c1CCC2C(=O)NS(=O)(=O)c1nc2c(=O)n(C)c(=O)n(C)c2n1Cc1ccccc1 (stereo not drawn)"
  pEC50: "≤ 5.00"

Just so you know, measured pEC50 for COc1ccc2c(c1OC)CCCC2C(=O)NS(=O)(=O)c1cccc2ccccc12 (stereo not drawn) came out at 5.00 to 5.52

Just so you know, measured pEC50 for COc1cc2c(cc1OC)C(C(=O)NS(=O)(=O)c1ccccc1C)CCC2 (stereo not drawn) came out at 5.00 to 5.52

Just so you know, measured pEC50 for "CC[C@]1(C(=O)NS(=O)(=O)c2cccc3ccccc23)CCCc2cccc(Cl)c21" came out at > 5.52

Just so you know, measured pEC50 for COc1cccc2c1CCC2C(=O)NS(=O)(=O)c1cc(C)ccc1Cl (stereo not drawn) came out at ≤ 5.00

====

target_entity: F508delCFTR (Homo sapiens, UniProt P13569, DEL508-508)
Construct: expressed in transfected cells; host or cells: CFBE41o- human lung-derived epithelial cells (CFBE41o-F508delCFTR-HRP), doxycycline-inducible
measurement_notes: Cell Surface Expression-Horse Radish Peroxidase (CSE-HRP) assay, test compound without co-corrector
Type: cell-based
condition_set: test compound without co-corrector
Measured EC50 by item

- compound: "CCC1(C(=O)NS(=O)(=O)c2cccc3c(C4CCC4)cccc23)CCc2c(C3CCC3)cccc21 (stereo not drawn)"
  EC50: "3 to 10 µM"
- compound: "COc1cccc2c1CCC2C(=O)NS(=O)(=O)c1cc([N+](=O)[O-])ccc1C (stereo not drawn)"
  EC50: "≥ 10 µM"
- compound: "CCC1(C(=O)NS(=O)(=O)c2cccc(F)c2C)CCc2c(Cl)cccc21 (stereo not drawn)"
  EC50: "< 3 µM"
- compound: "O=C(NS(=O)(=O)c1cccc2ccccc12)C1CCCc2c(OCC3CCCCC3)ccc(Br)c21 (stereo not drawn)"
  EC50: "3 to 10 µM"
- compound: "O=C(NS(=O)(=O)c1cccc2ccccc12)C1CCCc2c(Cl)ccc(O)c21 (stereo not drawn)"
  EC50: "3 to 10 µM"

Just so you know, measured EC50 for "COc1ccc(C2CCC2)c2c1[C@H](C(=O)NS(=O)(=O)c1cccc3c1CCCN3)CC2" came out at < 3 µM

Just so you know, measured EC50 for "COc1ccc(C(F)(F)F)c2c1[C@H](C(=O)NS(=O)(=O)c1cccc3ncccc13)CC2" came out at < 3 µM

Just so you know, measured EC50 for COc1ccc(C2CCCO2)c2c1C(C(=O)NS(=O)(=O)c1cccc3ccccc13)CC2 (stereo not drawn) came out at 3 to 10 µM

Just so you know, measured EC50 for Cc1ccccc1S(=O)(=O)NC(=O)C1CCCc2ccccc21 (stereo not drawn) came out at 3 to 10 µM

Just so you know, measured EC50 for "COc1ccc(Br)c2c1[C@@H](C(=O)NS(=O)(=O)c1cccc3ncccc13)CC2" came out at 3 to 10 µM

Just so you know, measured EC50 for COc1cccc2c1CCC2C(=O)NS(=O)(=O)c1ccc(NC(C)=O)cc1Cl (stereo not drawn) came out at ≥ 10 µM

Just so you know, measured EC50 for COc1cccc2c1CCC2C(=O)NS(=O)(=O)c1ccccc1[N+](=O)[O-] (stereo not drawn) came out at 3 to 10 µM

Just so you know, measured EC50 for COc1cccc2c1CCC2C(=O)NS(=O)(=O)c1c(C)nn(CCCl)c1C (stereo not drawn) came out at ≥ 10 µM

Just so you know, measured EC50 for CCC1(C(=O)NS(=O)(=O)c2cccc3cnccc23)CCc2c(Cl)cccc21 (stereo not drawn) came out at 3 to 10 µM

Just so you know, measured EC50 for COc1cccc2c1CCC2C(=O)NS(=O)(=O)c1ccc(CN(C)C)cc1 (stereo not drawn) came out at ≥ 10 µM

Just so you know, measured EC50 for "COc1ccc(C(F)(F)F)c2c1[C@H](C(=O)NS(=O)(=O)c1cccc3nc(C)ccc13)CC2" came out at < 3 µM

Just so you know, measured EC50 for COCCn1cc(S(=O)(=O)NC(=O)C2CCc3c(OC)cccc32)cn1 (stereo not drawn) came out at ≥ 10 µM

Just so you know, measured EC50 for COc1cccc2c1CCC2C(=O)NS(=O)(=O)c1cc(C)ccc1C(C)C (stereo not drawn) came out at ≥ 10 µM

Just so you know, measured EC50 for COc1ccc(C2CCC2)c2c1[C@H](C(=O)NS(=O)(=O)c1cccc3ncccc13)C2 (single isomer, unassigned) came out at < 3 µM
